The reported numbers originate from the Human Domainome abundance scans (Beltran et al. 2025).

B1: POU domain, class 4, transcription factor 1, residues 266 to 347; numbered along this chain, Q01851 (parent)
chain: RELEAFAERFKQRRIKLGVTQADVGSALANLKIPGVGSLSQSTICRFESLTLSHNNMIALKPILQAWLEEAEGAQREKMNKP

Variants of: B1
Assay: abundance fitness (aPCA) (normalised: wild type 0, dead -1); higher = more abundant; growth selection in yeast, the domain comes from the species named
Settings: Homo sapiens
Decision: abundance fitness >= -0.09 yields met, all other cases yield not met.

**Query** Entry `G73N` : is its abundance fitness no less than -0.09?
**Result** met

**Query** Tell me whether abundance fitness is at least -0.09 here: `N56F`
**Result** not met

**Query** State whether the measured abundance fitness reaches -0.09, counting equality as reaching it, for `E4M`
**Result** met

**Query** Check this variant for abundance fitness at or above -0.09: `Q65R`
**Result** not met
